- assaySystem: Neu5Ac(a2-3)Gal(b1-3)GalNAc
- procedureSummary: glycan array binding signal (z-score within array); higher = stronger binding
- conditionDetails: glycan notation: IUPAC condensed, linker removed
Many of the other results were omitted from the sample, so the strongest signals are more common in it than they were.
assayReadout: glycan array binding signal (z-score)

get_value(item= SP16665A-bot-344-23-344 (Bacteroides ovatus) (protein) SDNEFPDFDYQTVYFANQYGLRTIELGESEFVDNTLDNQHKMVIKAAWGGGYTNRNNVVINFKVDESLCDNLYFKDTDQPLVPMPASYYTLASDRIAIPKGQIMAGVEVQLTDDFFADEKSISENYVIPLLMTNVQGADSILQGKPVVENPVLTNAGDWSILPQNFVLYAVKYVNPWHGEYLRRGIDHATVAGTSKDIIRHEQFVENDEVVNISTKSMKDNLLTLKTKDESGKDISYTVRLSFAEDGSCTVHSGSQNVVVSGSGKFVSKGEKNSLGGKDRNAIYLDYTVNLTDNNIQLATKDTLVLRTRNVYGGKSLEVVRK , readout=glycan array binding signal (z-score)) returns 1.94

// provenance: the supplement of paper PMC8728848
